ASSAY_COMMENT: Cytotoxicity against MDCK cells after 40 hrs by Celltiter-Glo assay
Assay type: cell-based, Canis lupus familiaris
CONDITION_DESCRIPTION: dog
MEASURED_PROPERTY: CC50 at 40 h

Query: What does the record list as CC50 at 40 h for "CCOC(=O)C1=C[C@@H](OC(CC)CC)[C@H](NC(C)=O)[C@@H](N)C1" ?
Result: > 100 µM

Query: What does the record list as CC50 at 40 h for "CCCc1c(Cl)c(OC)cc(O)c1Oc1c(Cl)c(O)c(Cl)c2c1C(=O)O[C@@H]2CC" ?
Result: > 50 µM

Query: What does the record list as CC50 at 40 h for "CCCc1cc(O)cc(O)c1C(=O)O" ?
Result: > 100 µM

Query: What does the record list as CC50 at 40 h for "CCCc1cc(O)c(Cl)c(OC)c1Oc1c(Cl)c(O)c(Cl)c2c1C(=O)O[C@@H]2CC" ?
Result: > 100 µM

Query: What does the record list as CC50 at 40 h for "CCCc1c(Cl)c(OC)c(Cl)c(O)c1Oc1c(Cl)c(O)c(Cl)c2c1C(=O)O[C@@H]2CC" ?
Result: > 50 µM

Query: What does the record list as CC50 at 40 h for "CCCc1c(Cl)c(O)c(Cl)c(OC)c1Oc1c(Cl)c(O)c(Cl)c2c1C(=O)O[C@@H]2CC" ?
Result: > 100 µM

Query: What does the record list as CC50 at 40 h for "CCCc1c(Cl)c(O)cc(OC)c1Oc1c(Cl)c(O)c(Cl)c2c1C(=O)O[C@@H]2CC" ?
Result: > 100 µM

Query: What does the record list as CC50 at 40 h for "CCCc1cc(O)cc(OC)c1Oc1c(Cl)c(O)c(Cl)c2c1C(=O)O[C@@H]2CC" ?
Result: > 100 µM

----------
ASSAY_COMMENT: Binding affinity to Influenza A virus H3N2 HA3 protein by surface plasmon resonance assay
MEASURED_PROPERTY: pKd
API: returns pKd as number; meaning -log10 of concentration in mol/L.

Query: What does the record list as pKd for "CCCc1c(Cl)c(O)cc(OC)c1Oc1c(Cl)c(O)c(Cl)c2c1C(=O)O[C@@H]2CC" ?
Result: 4.74

----------
System: Influenza A virus (A/WSN/1933(H1N1))
ASSAY_COMMENT: Binding affinity to Influenza A virus A/WSN/33 (H1N1) HA1 protein assessed as decrease in protein affinity to sialic acid receptor at 2.5 uM by surface plasmon resonance assay
MEASURED_PROPERTY: Activity (RU)
State the answer as a number, implicitly in RU.

Query: What does the record list as Activity for "CCOC(=O)c1c(CSc2ccccc2)n(C)c2cc(Br)c(O)c(CN(C)C)c12" ?
Result: 7.5

Query: What does the record list as Activity for "CCCc1c(Cl)c(O)cc(OC)c1Oc1c(Cl)c(O)c(Cl)c2c1C(=O)O[C@@H]2CC" ?
Result: 10.3

Query: What does the record list as Activity for "CCCc1cc(O)cc(OC)c1Oc1c(Cl)c(O)c(Cl)c2c1C(=O)O[C@@H]2CC" ?
Result: 13

Query: What does the record list as Activity for "COc1cc(/C=C/C(=O)CC(=O)/C=C/c2ccc(O)c(OC)c2)ccc1O" ?
Result: 6.8

----------
ASSAY_COMMENT: Cytotoxicity against MDCK cells after 40 hrs by Celltiter-Glo assay
Type: cell-based, Canis lupus familiaris
CONDITION_DESCRIPTION: dog
MEASURED_PROPERTY: CC50 at 40 h

Query: What does the record list as CC50 at 40 h for "CCCc1c(Cl)c(O)c(Cl)c(O)c1Oc1c(Cl)c(O)c(Cl)c2c1C(=O)O[C@@H]2CC" ?
Result: > 50 µM

Query: What does the record list as CC50 at 40 h for "NC12CC3CC(CC(C3)C1)C2" ?
Result: > 100 µM

Query: What does the record list as CC50 at 40 h for "NC(=O)c1ncn([C@@H]2O[C@H](CO)[C@@H](O)[C@H]2O)n1" ?
Result: > 200 µM

Query: What does the record list as CC50 at 40 h for "CCCc1c(Cl)c(O)cc(O)c1Oc1c(Cl)c(O)c(Cl)c2c1C(=O)O[C@@H]2CC" ?
Result: > 50 µM

Query: What does the record list as CC50 at 40 h for "CCCc1cc(O)c(Cl)c(O)c1Oc1c(Cl)c(O)c(Cl)c2c1C(=O)O[C@@H]2CC" ?
Result: > 100 µM

Query: What does the record list as CC50 at 40 h for "CCCc1c(Cl)c(OC)cc(OC)c1Oc1c(Cl)c(O)c(Cl)c2c1C(=O)O[C@@H]2CC" ?
Result: > 50 µM

Query: What does the record list as CC50 at 40 h for "CCCc1c(Cl)c(OC)c(Cl)c(OC)c1Oc1c(Cl)c(O)c(Cl)c2c1C(=O)O[C@@H]2CC" ?
Result: > 50 µM

Query: What does the record list as CC50 at 40 h for "CC[C@H]1OC(=O)c2c(O)c(Cl)c(O)c(Cl)c21" ?
Result: > 100 µM

Query: What does the record list as CC50 at 40 h for "CCCc1cc(O)cc(O)c1Oc1c(Cl)c(O)c(Cl)c2c1C(=O)O[C@@H]2CC" ?
Result: > 100 µM

----------
Provide the reported pEC50 of each item.
System: Influenza B virus
ASSAY_COMMENT: Antiviral activity against influenza B virus B/SZ/155 infected in dog MDCK cells assessed as inhibition of virus induced cytopathic effect after 40 hrs by Cell-Titer-Glo assay
Type: functional, organism-based
CONDITION_DESCRIPTION: B/SZ/155, MDCK
API: returns pEC50 as number; meaning -log10 of concentration in mol/L.

Query: What does the record list as pEC50 for NC(=O)c1ncn([C@@H]2O[C@H](CO)[C@@H](O)[C@H]2O)n1 [RIBAVIRIN] ?
Result: 5.37

Query: What does the record list as pEC50 for "CCCc1c(Cl)c(O)cc(OC)c1Oc1c(Cl)c(O)c(Cl)c2c1C(=O)O[C@@H]2CC" ?
Result: 4.49

Query: What does the record list as pEC50 for NC12CC3CC(CC(C3)C1)C2 [AMANTADINE] ?
Result: 3.84

----------
Tested on: Influenza A virus (A/WSN/1933(H1N1))
ASSAY_COMMENT: Binding affinity to Influenza A virus A/WSN/33 (H1N1) HA1 protein assessed as decrease in protein affinity to sialic acid receptor at 5 uM by surface plasmon resonance assay
Provide the reported Activity of each item.
State the answer as a number, implicitly in RU.

Query: What does the record list as Activity for CCOC(=O)c1c(CSc2ccccc2)n(C)c2cc(Br)c(O)c(CN(C)C)c12 [UMIFENOVIR] ?
Result: 20.7

Query: What does the record list as Activity for "CCCc1c(Cl)c(O)cc(OC)c1Oc1c(Cl)c(O)c(Cl)c2c1C(=O)O[C@@H]2CC" ?
Result: 21

Query: What does the record list as Activity for COc1cc(/C=C/C(=O)CC(=O)/C=C/c2ccc(O)c(OC)c2)ccc1O [CURCUMIN] ?
Result: 16.1

Query: What does the record list as Activity for "CCCc1cc(O)cc(OC)c1Oc1c(Cl)c(O)c(Cl)c2c1C(=O)O[C@@H]2CC" ?
Result: 27.1

----------
System: Influenza A virus (A/WSN/1933(H1N1))
ASSAY_COMMENT: Binding affinity to Influenza A virus A/WSN/33 (H1N1) HA1 protein by surface plasmon resonance assay
Provide the reported Ka of each item.
State the answer as a number, implicitly in ×10⁴ /Ms.

Query: What does the record list as Ka for "CCCc1cc(O)cc(OC)c1Oc1c(Cl)c(O)c(Cl)c2c1C(=O)O[C@@H]2CC" ?
Result: 0.46

Query: What does the record list as Ka for "CCCc1cc(O)c(Cl)c(O)c1Oc1c(Cl)c(O)c(Cl)c2c1C(=O)O[C@@H]2CC" ?
Result: 0.67

Query: What does the record list as Ka for "CCCc1c(Cl)c(O)cc(OC)c1Oc1c(Cl)c(O)c(Cl)c2c1C(=O)O[C@@H]2CC" ?
Result: 2.3

Query: What does the record list as Ka for "CCCc1cc(O)c(Cl)c(OC)c1Oc1c(Cl)c(O)c(Cl)c2c1C(=O)O[C@@H]2CC" ?
Result: 0.77

----------
Test system: Influenza A virus (A/WSN/1933(H1N1))
ASSAY_COMMENT: Binding affinity to Influenza A virus A/WSN/33 (H1N1) HA1 protein assessed as decrease in protein affinity to sialic acid receptor at 20 uM by surface plasmon resonance assay
MEASURED_PROPERTY: Activity
Field: value (include unit after the number)

Query: What does the record list as Activity for CCOC(=O)c1c(CSc2ccccc2)n(C)c2cc(Br)c(O)c(CN(C)C)c12 [UMIFENOVIR] ?
Result: 102 RU

Query: What does the record list as Activity for "CCCc1c(Cl)c(O)cc(OC)c1Oc1c(Cl)c(O)c(Cl)c2c1C(=O)O[C@@H]2CC" ?
Result: 98.2 RU

Query: What does the record list as Activity for COc1cc(/C=C/C(=O)CC(=O)/C=C/c2ccc(O)c(OC)c2)ccc1O [CURCUMIN] ?
Result: 78.8 RU

Query: What does the record list as Activity for "CCCc1cc(O)cc(OC)c1Oc1c(Cl)c(O)c(Cl)c2c1C(=O)O[C@@H]2CC" ?
Result: 114 RU
